Assay: Displacement of [3H]2-tert-butoxy-2-(2-methyl-4-p-tolylquinolin-3-yl)acetic acid from LEDGF binding site of HIV1 integrase
Set-up: species or system Human immunodeficiency virus 1
Quick reference for IC50 among some compounds

# Smiles Notation, IC50 [nM]
rows = [
    ("Cc1nc2cc(C(=O)NCCC(C)(C)C)nn2c(-c2cc(F)c3c(c2C)CCCO3)c1[C@H](OC(C)(C)C)C(=O)O", 84),
    ("Cc1cc(CNC(=O)c2cc3nc(C)c([C@H](OC(C)(C)C)C(=O)O)c(-c4cc(F)c5c(c4C)CCCO5)n3n2)ccc1F", 42),
    ("CCCc1cc(CNC(=O)c2cc3nc(C)c([C@H](OC(C)(C)C)C(=O)O)c(-c4cc(F)c5c(c4C)CCCO5)n3n2)ccc1F", 108),
    ("Cc1nc2cc(C(=O)NCc3ccc(F)cc3-n3cncn3)nn2c(-c2cc(F)c3c(c2C)CCCO3)c1[C@H](OC(C)(C)C)C(=O)O", 21),
    ("CCc1cc(CNC(=O)c2cc3nc(C)c([C@H](OC(C)(C)C)C(=O)O)c(-c4cc(F)c5c(c4C)CCCO5)n3n2)ccc1F", 48),
    ("CNC(=O)c1cc(F)ccc1CNC(=O)c1cc2nc(C)c([C@H](OC(C)(C)C)C(=O)O)c(-c3cc(F)c4c(c3C)CCCO4)n2n1", 42),
    ("Cc1nc2cc(C(=O)NCCN3CCOCC3)nn2c(-c2cc(F)c3c(c2C)CCCO3)c1[C@H](OC(C)(C)C)C(=O)O", 815),
    ("Cc1nc2cc(C(=O)NCc3ccc(F)cc3S(C)(=O)=O)nn2c(-c2cc(F)c3c(c2C)CCCO3)c1[C@H](OC(C)(C)C)C(=O)O", 69),
    ("Cc1nc2cc(-c3ncc(Cc4ccc(F)cc4)o3)nn2c(-c2cc(F)c3c(c2C)CCCO3)c1[C@H](OC(C)(C)C)C(=O)O", 21),
    ("Cc1nc2cc(C(=O)NCCC3CCOCC3)nn2c(-c2cc(F)c3c(c2C)CCCO3)c1[C@H](OC(C)(C)C)C(=O)O", 95),
    ("Cc1nc2cc(C(=O)NCCC(C)C)nn2c(-c2cc(F)c3c(c2C)CCCO3)c1[C@H](OC(C)(C)C)C(=O)O", 120),
    ("Cc1nc2cc(C(=O)NCc3ccc(F)cc3O)nn2c(-c2cc(F)c3c(c2C)CCCO3)c1[C@H](OC(C)(C)C)C(=O)O", 67),
    ("Cc1nc2cc(C(=O)NCc3ccc(F)cc3N3CCCC3=O)nn2c(-c2cc(F)c3c(c2C)CCCO3)c1[C@H](OC(C)(C)C)C(=O)O", 65),
    ("Cc1nc2cc(-c3ncc(-c4ccc(F)cc4)s3)nn2c(-c2cc(F)c3c(c2C)CCCO3)c1[C@H](OC(C)(C)C)C(=O)O", 195),
    ("COc1cc(F)ccc1CNC(=O)c1cc2nc(C)c([C@H](OC(C)(C)C)C(=O)O)c(-c3cc(F)c4c(c3C)CCCO4)n2n1", 21),
    ("Cc1nc2cc(C(=O)NCCC3CCCCC3)nn2c(-c2cc(F)c3c(c2C)CCCO3)c1[C@H](OC(C)(C)C)C(=O)O", 63),
    ("CCCNC(=O)c1cc2nc(C)c([C@H](OC(C)(C)C)C(=O)O)c(-c3cc(F)c4c(c3C)CCCO4)n2n1", 1120),
    ("Cc1nc2cc(C(=O)NCC3CCOCC3)nn2c(-c2cc(F)c3c(c2C)CCCO3)c1[C@H](OC(C)(C)C)C(=O)O", 420),
]
